Hey, just so you know, these numbers are from the kinase profiling compilation of Christmann-Franck et al. (2016).

molecular target: MAPK12 (human) (UniProt P53778); experiment: radiometric filter-binding kinase assay, Kinase HotSpot; conditions: compound 0.5 µM; ATP 10 µM
Sequence (P53778 whole entry, looked up): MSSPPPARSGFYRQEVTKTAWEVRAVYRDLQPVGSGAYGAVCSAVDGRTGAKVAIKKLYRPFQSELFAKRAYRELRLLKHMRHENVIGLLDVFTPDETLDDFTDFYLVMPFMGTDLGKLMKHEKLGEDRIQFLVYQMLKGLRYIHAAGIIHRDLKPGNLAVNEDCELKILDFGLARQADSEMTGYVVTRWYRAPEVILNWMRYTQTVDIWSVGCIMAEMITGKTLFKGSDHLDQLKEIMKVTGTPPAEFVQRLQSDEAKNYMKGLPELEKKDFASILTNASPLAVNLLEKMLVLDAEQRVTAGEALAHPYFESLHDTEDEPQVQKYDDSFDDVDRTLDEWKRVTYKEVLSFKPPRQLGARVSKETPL
Experimental Readout: residual activity (%)
Numbers only; they are read as %.

Example compounds with recorded residual activity:
[[record]]
cpd_smiles = "COc1cccc(-c2cc(=O)c3ccccc3o2)c1N"
unit_abbrev = "%"
measured_result = 95.5

[[record]]
cpd_smiles = "N#C/C(=C1/Nc2ccccc2S1)c1ccnc(NCCc2cccnc2)n1"
unit_abbrev = "%"
measured_result = 96.7

[[record]]
cpd_smiles = "COc1cc2ncnc(Nc3ccc(O)c(Br)c3)c2cc1OC"
unit_abbrev = "%"
measured_result = 92.8

[[record]]
cpd_smiles = "N#CCCc1ccc2c(c1)-c1[nH]c3ccc([N+](=O)[O-])cc3c1CC(=O)N2"
unit_abbrev = "%"
measured_result = 98.9

[[record]]
cpd_smiles = "Cn1cc(/C=C2\\C(=O)Nc3ccc(S(N)(=O)=O)cc32)c2ccccc21"
unit_abbrev = "%"
measured_result = 101

[[record]]
cpd_smiles = "Nc1ncnc2c1cnn2-c1ccccc1"
unit_abbrev = "%"
measured_result = 90.6


I have this compound here, COc1cc2c(cc1OC)-c1[nH]nc(Nc3cccc(F)c3)c1C2 , and I need its recorded residual activity.
101

May I ask what residual activity has been recorded for Cc1cc(Nc2nc(-c3ccccc3)nc3ccccc23)n[nH]1 ?
86.8

So what does the record say about residual activity for O=C1NC(=O)c2c1c1c3ccccc3[nH]c1c1[nH]c3cc(Br)ccc3c21 ?
100

// query residual activity value for entry COc1cc2c(Nc3ccc(Br)cc3F)ncnc2cc1OCC1CCN(C)CC1
92.6

---

Known residual activity of a selection of compounds
target: UniProt:P29322; assay: radiometric filter-binding kinase assay, Kinase HotSpot; conditions: compound 0.5 µM; ATP 10 µM
Sequence (P29322 whole entry, looked up): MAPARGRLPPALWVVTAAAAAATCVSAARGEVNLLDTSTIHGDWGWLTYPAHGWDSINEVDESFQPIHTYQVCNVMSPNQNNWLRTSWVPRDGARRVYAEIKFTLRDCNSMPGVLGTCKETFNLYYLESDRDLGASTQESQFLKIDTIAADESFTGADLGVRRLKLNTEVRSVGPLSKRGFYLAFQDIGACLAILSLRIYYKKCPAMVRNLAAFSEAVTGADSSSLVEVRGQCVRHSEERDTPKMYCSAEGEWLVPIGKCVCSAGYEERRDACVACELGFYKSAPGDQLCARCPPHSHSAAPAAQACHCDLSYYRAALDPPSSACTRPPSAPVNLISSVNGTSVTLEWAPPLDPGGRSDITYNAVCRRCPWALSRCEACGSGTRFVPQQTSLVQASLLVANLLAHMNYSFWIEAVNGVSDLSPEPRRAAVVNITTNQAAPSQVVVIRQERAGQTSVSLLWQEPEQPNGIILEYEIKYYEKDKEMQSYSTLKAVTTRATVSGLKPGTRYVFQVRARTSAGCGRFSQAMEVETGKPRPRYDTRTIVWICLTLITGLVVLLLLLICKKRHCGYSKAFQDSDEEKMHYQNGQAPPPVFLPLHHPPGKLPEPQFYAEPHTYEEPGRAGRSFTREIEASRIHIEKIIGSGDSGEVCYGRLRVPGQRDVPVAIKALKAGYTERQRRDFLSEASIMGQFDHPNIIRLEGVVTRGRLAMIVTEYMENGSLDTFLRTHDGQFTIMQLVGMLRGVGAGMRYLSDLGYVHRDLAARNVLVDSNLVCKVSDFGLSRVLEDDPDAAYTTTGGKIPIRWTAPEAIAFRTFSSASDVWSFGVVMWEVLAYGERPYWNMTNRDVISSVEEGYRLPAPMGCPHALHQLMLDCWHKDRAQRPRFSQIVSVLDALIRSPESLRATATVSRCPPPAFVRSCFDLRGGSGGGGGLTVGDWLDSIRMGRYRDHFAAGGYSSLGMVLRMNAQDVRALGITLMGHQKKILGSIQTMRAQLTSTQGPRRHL
Give a bare numeral; the unit % is implied.

Solved entries (count: 2):
[[record]]
cpd_smiles = "N#Cc1c(NC(=O)c2cccc3ccccc23)sc2c1CCCC2"
unit_abbrev = "%"
measured_result = 104

[[record]]
cpd_smiles = "CN[C@@H]1C[C@H]2O[C@@](C)([C@@H]1OC)n1c3ccccc3c3c4c(c5c6ccccc6n2c5c31)C(=O)NC4"
unit_abbrev = "%"
measured_result = 25.7


// next entry
Quick one: residual activity of Nc1ncnc2c1cnn2-c1ccccc1 ?
90.5

---

molecular target: WEE1 (human); test: radiometric filter-binding kinase assay, Kinase HotSpot; conditions: compound 0.5 µM; ATP 10 µM
Experimental Readout: residual activity (%)
Give a bare numeral; the unit % is implied.

Record request: residual activity value, item O=c1cc(N2CCOCC2)oc2c(-c3ccccc3)cccc12
76.4

Give its residual activity value. Item: Nc1ncnc2c1cnn2-c1ccccc1
90

Dear colleague, I am looking for the recorded residual activity of the following molecule: N#Cc1c(NC(=O)c2cccc3ccccc23)sc2c1CCCC2
88.9

Given the entry COc1cc2c(Nc3ccc(Br)cc3F)ncnc2cc1OCC1CCN(C)CC1 , report its measured residual activity.
95.1

Which residual activity value belongs to O=S(=O)(NCCNC/C=C/c1ccc(Br)cc1)c1cccc2cnccc12 ?
84.6

GET /values?readout=residual activity&item= O=C1NC(=O)c2cc(Nc3ccc(F)cc3)c(Nc3ccc(F)cc3)cc21
99.6

What measured residual activity goes with CCCCc1c(-c2ccc(O)cc2)[nH]c2nccnc12 ?
94.6

So what does the record say about residual activity for O=c1[nH]c2ccccc2n1C1CCN(Cc2ccc(-c3nc4cc5[nH]cnc5cc4nc3-c3ccccc3)cc2)CC1 ?
93.9

What value of residual activity has been recorded for this entry: CCOc1cc2ncnc(Nc3cccc(Br)c3)c2cc1OCC
97.9

---

Let's look at some molecules and their measured residual activity.
target: CDK2 CCNE1 (human) (UniProt P24941+P24864); assay: radiometric filter-binding kinase assay, Kinase HotSpot; conditions: compound 0.5 µM; ATP 10 µM
Sequence (P24864 whole entry, looked up, other chains not shown): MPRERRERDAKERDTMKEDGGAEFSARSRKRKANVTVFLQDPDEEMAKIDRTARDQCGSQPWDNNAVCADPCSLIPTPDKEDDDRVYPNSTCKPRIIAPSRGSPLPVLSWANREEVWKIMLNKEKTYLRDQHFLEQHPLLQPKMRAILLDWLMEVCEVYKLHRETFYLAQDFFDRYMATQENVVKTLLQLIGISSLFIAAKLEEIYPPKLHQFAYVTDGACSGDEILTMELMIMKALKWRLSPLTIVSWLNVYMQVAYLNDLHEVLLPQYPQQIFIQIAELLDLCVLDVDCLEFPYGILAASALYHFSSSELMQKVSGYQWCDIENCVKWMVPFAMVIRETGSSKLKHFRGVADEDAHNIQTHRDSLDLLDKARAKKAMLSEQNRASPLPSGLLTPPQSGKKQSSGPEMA
Give just the number in %; leave the unit off.

[[record]]
cpd_smiles = "FC(F)(F)c1ccc(/C=C/c2nc(COc3ccc(CCCCn4ccnn4)cc3)co2)cc1"
experimental_readout = "residual activity"
measured_result = 96.3


Item COc1cc2ncnc(Nc3ccc(O)c(Br)c3)c2cc1OC has what recorded residual activity?
95.7

I would be grateful if you could share the reported residual activity for N#C/C(=C1/Nc2ccccc2S1)c1ccnc(NCCc2cccnc2)n1 .
82.7

---

target: UniProt Q8IU85; assay: radiometric filter-binding kinase assay, Kinase HotSpot; conditions: compound 0.5 µM; ATP 10 µM
Sequence (Q8IU85 whole entry, looked up): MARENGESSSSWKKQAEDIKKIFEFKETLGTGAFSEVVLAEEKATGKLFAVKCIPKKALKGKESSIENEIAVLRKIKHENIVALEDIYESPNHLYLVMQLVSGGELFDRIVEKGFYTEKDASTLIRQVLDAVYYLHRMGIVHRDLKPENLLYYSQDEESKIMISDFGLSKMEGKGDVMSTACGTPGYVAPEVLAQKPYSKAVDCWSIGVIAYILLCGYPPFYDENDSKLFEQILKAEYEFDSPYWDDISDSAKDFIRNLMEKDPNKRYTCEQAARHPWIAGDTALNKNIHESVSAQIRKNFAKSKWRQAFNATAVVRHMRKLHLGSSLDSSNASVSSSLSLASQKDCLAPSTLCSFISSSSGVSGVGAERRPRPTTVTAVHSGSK
Quick reference for residual activity among some compounds
Entry rule: numbers only, all in %.

Reference set (2 entries):
[[record]]
cpd_smiles = "O=c1c2ccccc2[nH]c(=S)n1CCN1CCC(=C(c2ccc(F)cc2)c2ccc(F)cc2)CC1"
unit_abbrev = "%"
measured_result = 96.8

[[record]]
cpd_smiles = "O=C1NC(=O)c2c1c1c3ccccc3[nH]c1c1[nH]c3cc(Br)ccc3c21"
unit_abbrev = "%"
measured_result = 92.2


Report residual activity for O=c1[nH]c2ccccc2n1C1CCN(Cc2ccc(-c3nc4cc5[nH]cnc5cc4nc3-c3ccccc3)cc2)CC1 please.
107

Bench note: what residual activity did Cc1cc(Nc2nc(-c3ccccc3)nc3ccccc23)n[nH]1 show?
85.4

Entry under review: CCCCc1c(-c2ccc(O)cc2)[nH]c2nccnc12 . Reported residual activity?
96.9

Need residual activity, item COc1cc2c(Nc3ccc(Br)cc3F)ncnc2cc1OCC1CCN(C)CC1
90.6

Quick check: residual activity of COc1cc2c(N3CCN(C(=O)Nc4ccc(OC(C)C)cc4)CC3)ncnc2cc1OCCCN1CCCCC1 ?
110

Item Nc1ncnc2c1cnn2-c1ccccc1 has what recorded residual activity?
95.6

---

target: CSNK1A1 (human); test: radiometric filter-binding kinase assay, Kinase HotSpot; conditions: compound 0.5 µM; ATP 10 µM
Experimental Readout: residual activity (%)
Write the number in % without appending the unit.

Consider the reported residual activity for these molecules:
[[record]]
cpd_smiles = "N#C/C(=C1/Nc2ccccc2S1)c1ccnc(NCCc2cccnc2)n1"
experimental_readout = "residual activity"
unit_abbrev = "%"
measured_result = 80

[[record]]
cpd_smiles = "COc1cccc(-c2cc(=O)c3ccccc3o2)c1N"
experimental_readout = "residual activity"
unit_abbrev = "%"
measured_result = 95.6

[[record]]
cpd_smiles = "O=c1[nH]c2ccccc2n1C1CCN(Cc2ccc(-c3nc4cc5[nH]cnc5cc4nc3-c3ccccc3)cc2)CC1"
experimental_readout = "residual activity"
unit_abbrev = "%"
measured_result = 96

[[record]]
cpd_smiles = "O=C1NC(=O)c2cc(Nc3ccc(F)cc3)c(Nc3ccc(F)cc3)cc21"
experimental_readout = "residual activity"
unit_abbrev = "%"
measured_result = 88

[[record]]
cpd_smiles = "c1ccc(-c2cnc(Nc3ccc(OCCN4CCCC4)cc3)s2)cc1"
experimental_readout = "residual activity"
unit_abbrev = "%"
measured_result = 86.7

[[record]]
cpd_smiles = "COc1cc2c(N3CCN(C(=O)Nc4ccc(OC(C)C)cc4)CC3)ncnc2cc1OCCCN1CCCCC1"
experimental_readout = "residual activity"
unit_abbrev = "%"
measured_result = 101


Lookup: residual activity / CSNK1A1 (human) / O=C(c1ccccc1)c1ccc(N2CCOCC2)cc1O
110

Provide the documented residual activity with CSNK1A1 (human) as the system for O=C(O)c1ccc2c3c1cccc3c(=O)n1c3ccccc3nc21
97.6

Find the measured residual activity: item Nc1ncnc2c1cnn2-c1ccccc1 , target or system CSNK1A1 (human).
79.8

---

target: ULK2 (human); assay: radiometric filter-binding kinase assay, Kinase HotSpot; settings: compound 0.5 µM; ATP 10 µM
Experimental Readout: residual activity (%)
// units = %; emit number, no label

These solved cases illustrate the format of a correct answer.
[[record]]
cpd_smiles = "O=S(=O)(NCCNC/C=C/c1ccc(Br)cc1)c1cccc2cnccc12"
target_system = "ULK2 (human)"
measured_result = 98.9

[[record]]
cpd_smiles = "Nc1ncnc2c1cnn2-c1ccccc1"
target_system = "ULK2 (human)"
measured_result = 95.1

[[record]]
cpd_smiles = "COc1cc2ncnc(Nc3ccc(O)c(Br)c3)c2cc1OC"
target_system = "ULK2 (human)"
measured_result = 104

[[record]]
cpd_smiles = "COc1cc2c(cc1OC)-c1[nH]nc(Nc3cccc(F)c3)c1C2"
target_system = "ULK2 (human)"
measured_result = 97.3

[[record]]
cpd_smiles = "Cc1cc(Nc2nc(-c3ccccc3)nc3ccccc23)n[nH]1"
target_system = "ULK2 (human)"
measured_result = 95.1

[[record]]
cpd_smiles = "O=C(O)c1ccc2c3c1cccc3c(=O)n1c3ccccc3nc21"
target_system = "ULK2 (human)"
measured_result = 93.9

[[record]]
cpd_smiles = "N#Cc1c(NC(=O)c2cccc3ccccc23)sc2c1CCCC2"
target_system = "ULK2 (human)"
measured_result = 112

[[record]]
cpd_smiles = "FC(F)(F)c1ccc(/C=C/c2nc(COc3ccc(CCCCn4ccnn4)cc3)co2)cc1"
target_system = "ULK2 (human)"
measured_result = 99.6


# evaluate next
Name the recorded residual activity for Cn1cc(/C=C2\C(=O)Nc3ccc(S(N)(=O)=O)cc32)c2ccccc21 .
72.3
